ASSAY_EXPLANATION: mitochondrial membrane potential change in A549 cells, profiling panel, cell-based, JC-1 fluorescence, basal, 24 h, 100 nL (AID 1138);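 further: A549 lung adenocarcinoma cells under basal conditions with no added stimulus; test concentration not given here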
RUN_CONDITIONS: higher = more signal
Record form. Attribute: z-score. Fill in for each entry.

[in] Could you tell me which z-score is on file for COc1cc(OC)c(C(O)C2C=CC3C(=O)N(c4ccccc4)C(=O)C3N2Nc2ccc(C#N)cc2)cc1Br (stereo not drawn) ?
[out] 0.658

[in] Could you tell me which z-score is on file for COc1cc(CO)cc(I)c1O[C@H]1C=C(C(=O)NCCO)C[C@@H](NCc2ccccc2F)[C@@H]1O ?
[out] 1.72

[in] Could you tell me which z-score is on file for C=CCOC(=O)[C@@H]1[C@H]2C(=O)O[C@H](c3ccccc3)[C@H](c3ccccc3)N2[C@H](c2ccc(OCCOC(=O)[C@H]3C[C@H]4C(=O)N[C@@H](CCCCN(C)C)C(=O)N4[C@H]3c3cccc(OCCO)c3)cc2)[C@@]12C(=O)Nc1ccc(I)cc12 ?
[out] -0.717
